Test system: Staphylococcus aureus
procedureSummary: Bactericidal activity against methicillin-sensitive Staphylococcus aureus ATCC 33591 after overnight incubation
Type: functional

>  <smilesRecord>
COC(=O)[C@@H]1NC(=O)[C@H]2NC(=O)[C@H](NC(=O)[C@@H]3NC(=O)[C@H]4NC(=O)[C@@H](Cc5ccc(c(Cl)c5)Oc5cc3cc(c5O)Oc3ccc(cc3Cl)[C@H]2O)NC(=O)[C@H](N=[N+]=[N-])c2ccc(O)c(c2)Oc2cc(O)cc4c2)c2ccc(O)c(c2)-c2c(O)cc(O)cc21

>  <units>
µg/mL

>  <MBC>
256

$$$$
>  <smilesRecord>
CC(=O)N[C@H]1[C@H](O[C@@H]2c3ccc(c(Cl)c3)Oc3cc4cc(c3O)Oc3ccc(cc3Cl)C[C@H]3NC(=O)[C@H](N=[N+]=[N-])c5ccc(O)c(c5)Oc5cc(O)cc(c5)[C@H](NC3=O)C(=O)N[C@H]4C(=O)N[C@H]3C(=O)N[C@@H]2C(=O)N[C@@H](C(=O)O)c2cc(O)cc(O)c2-c2cc3ccc2O)O[C@H](CO)[C@@H](O)[C@@H]1O

>  <units>
µg/mL

>  <MBC>
2

$$$$
>  <smilesRecord>
COC(=O)[C@H]1NC(=O)[C@H]2NC(=O)[C@H](NC(=O)[C@@H]3NC(=O)[C@H]4NC(=O)[C@H](NC(=O)[C@H](N=[N+]=[N-])c5ccc(O)c(c5)Oc5cc4cc(O)c5C)[C@H](O)c4ccc(cc4)Oc4cc3cc(c4O)Oc3ccc(cc3)[C@H]2O)c2ccc(O)c(c2)-c2c(O)cc(O)cc21

>  <units>
µg/mL

>  <MBC>
1

$$$$

====

System: Enterococcus faecalis
procedureSummary: Bactericidal activity against vancomycin and teicoplanin-sensitive Enterococcus faecalis ATCC 29212 after overnight incubation
Type: functional

>  <smilesRecord>
CCCCCCCCCCOCc1cn([C@H]2C(=O)N[C@@H]3Cc4ccc(c(Cl)c4)Oc4cc5cc(c4O)Oc4ccc(cc4Cl)[C@@H](O[C@@H]4O[C@H](CO)[C@@H](O)[C@H](O)[C@H]4NC(C)=O)[C@@H]4NC(=O)[C@H](NC(=O)[C@@H]5NC(=O)[C@@H](NC3=O)c3cc(O)cc(c3)Oc3cc2ccc3O)c2ccc(O)c(c2)-c2c(O)cc(O)cc2[C@H](C(=O)O)NC4=O)nn1

>  <units>
µg/mL

>  <MBC>
0.25

$$$$
>  <smilesRecord>
CCCCCCCCCCOCc1cn([C@H]2C(=O)N[C@@H]3Cc4ccc(c(Cl)c4)Oc4cc5cc(c4O)Oc4ccc(cc4Cl)[C@@H](O)[C@@H]4NC(=O)[C@H](NC(=O)[C@@H]5NC(=O)[C@@H](NC3=O)c3cc(O)cc(c3)Oc3cc2ccc3O)c2ccc(O)c(c2)-c2c(O)cc(O)cc2[C@H](C(=O)OC)NC4=O)nn1

>  <units>
µg/mL

>  <MBC>
128

$$$$

====

Test system: Staphylococcus aureus
procedureSummary: Antibacterial activity against methicillin-sensitive Staphylococcus aureus ATCC 29213 after 18 hrs by broth microdilution method
Assay type: functional
statedConditions: ATCC 29213, 18 h
Overview of recorded MIC for various compounds

>  <smilesRecord>
COC(=O)[C@@H]1NC(=O)[C@H]2NC(=O)[C@H](NC(=O)[C@@H]3NC(=O)[C@H]4NC(=O)[C@@H](Cc5ccc(c(Cl)c5)Oc5cc3cc(c5O)Oc3ccc(cc3Cl)[C@H]2O)NC(=O)[C@H](N=[N+]=[N-])c2ccc(O)c(c2)Oc2cc(O)cc4c2)c2ccc(O)c(c2)-c2c(O)cc(O)cc21

>  <studyTarget>
Staphylococcus aureus

>  <units>
µg/mL

>  <boundType>
=

>  <MIC>
64

$$$$
>  <smilesRecord>
CC(=O)N[C@H]1[C@H](O[C@@H]2c3ccc(c(Cl)c3)Oc3cc4cc(c3O)Oc3ccc(cc3Cl)C[C@H]3NC(=O)[C@H](N=[N+]=[N-])c5ccc(O)c(c5)Oc5cc(O)cc(c5)[C@H](NC3=O)C(=O)N[C@H]4C(=O)N[C@H]3C(=O)N[C@@H]2C(=O)N[C@@H](C(=O)O)c2cc(O)cc(O)c2-c2cc3ccc2O)O[C@H](CO)[C@@H](O)[C@@H]1O

>  <studyTarget>
Staphylococcus aureus

>  <units>
µg/mL

>  <boundType>
=

>  <MIC>
8

$$$$
>  <smilesRecord>
CCCCCCCCCCOCc1cn([C@H]2C(=O)N[C@@H]3Cc4ccc(c(Cl)c4)Oc4cc5cc(c4O)Oc4ccc(cc4Cl)[C@@H](O[C@@H]4O[C@H](CO)[C@@H](O)[C@H](O)[C@H]4NC(C)=O)[C@@H]4NC(=O)[C@H](NC(=O)[C@@H]5NC(=O)[C@@H](NC3=O)c3cc(O)cc(c3)Oc3cc2ccc3O)c2ccc(O)c(c2)-c2c(O)cc(O)cc2[C@H](C(=O)O)NC4=O)nn1

>  <studyTarget>
Staphylococcus aureus

>  <units>
µg/mL

>  <boundType>
=

>  <MIC>
0.5

$$$$
>  <smilesRecord>
COC(=O)[C@H]1NC(=O)[C@H]2NC(=O)[C@H](NC(=O)[C@@H]3NC(=O)[C@H]4NC(=O)[C@H](NC(=O)[C@H](N=[N+]=[N-])c5ccc(O)c(c5)Oc5cc4cc(O)c5C)[C@H](O)c4ccc(cc4)Oc4cc3cc(c4O)Oc3ccc(cc3)[C@H]2O)c2ccc(O)c(c2)-c2c(O)cc(O)cc21

>  <studyTarget>
Staphylococcus aureus

>  <units>
µg/mL

>  <boundType>
=

>  <MIC>
2

$$$$
>  <smilesRecord>
CCCCCCCCCCOCc1cn([C@H]2C(=O)N[C@H]3C(=O)N[C@H](C(=O)N[C@H]4C(=O)N[C@H]5C(=O)N[C@H](C(=O)N[C@@H](C(=O)OC)c6cc(O)cc(O)c6-c6cc5ccc6O)[C@H](O)c5ccc(cc5)Oc5cc4cc(c5O)Oc4ccc(cc4)[C@H]3O)c3cc(O)c(C)c(c3)Oc3cc2ccc3O)nn1

>  <studyTarget>
Staphylococcus aureus

>  <units>
µg/mL

>  <boundType>
>

>  <MIC>
256

$$$$

Reference for the values: ChEMBL document CHEMBL1156074
